- STUDY SYSTEM: Cyclin-dependent kinase 4 (Homo sapiens) (UniProt P11802);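 also: enzyme tested as the CDK4–cyclin D complex, with the value reported as mean percent inhibition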
- Sequence (P11802 whole entry): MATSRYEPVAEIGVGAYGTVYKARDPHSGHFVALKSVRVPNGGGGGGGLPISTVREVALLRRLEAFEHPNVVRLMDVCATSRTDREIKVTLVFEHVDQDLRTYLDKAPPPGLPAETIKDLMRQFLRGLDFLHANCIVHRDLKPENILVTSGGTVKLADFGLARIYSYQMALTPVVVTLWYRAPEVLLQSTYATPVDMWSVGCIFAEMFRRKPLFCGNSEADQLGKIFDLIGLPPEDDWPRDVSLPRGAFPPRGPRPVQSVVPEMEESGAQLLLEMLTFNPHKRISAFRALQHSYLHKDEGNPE
- ASSAY SETUP: at 1 µM
molecules and their reported inhibition
The figure you give is taken to be in %; do not add the unit.

Before answering, review these 2 worked examples.
NS(=O)(=O)c1ccc(N/N=C2\C(=O)Nc3ccc4ncccc4c32)cc1
76.2
CCCN(CCS(C)(=O)=O)Cc1ccc(-c2ccc3ncnc(Nc4ccc(OCc5cccc(F)c5)c(Cl)c4)c3c2)o1
5.06

Lookup: inhibition / Cyclin-dependent kinase 4 (Homo sapiens) (UniProt P11802) / COc1ccc(-c2oc3ncnc(N)c3c2-c2ccc(NC(=O)Nc3cc(C(F)(F)F)ccc3F)cc2)cc1 5.04

====

- STUDY SYSTEM: Tyrosine-protein kinase Lck (Homo sapiens) (UniProt P06239);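 also: reported values are mean percent inhibition of Lck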
- Sequence (P06239 2-509 limits assumed): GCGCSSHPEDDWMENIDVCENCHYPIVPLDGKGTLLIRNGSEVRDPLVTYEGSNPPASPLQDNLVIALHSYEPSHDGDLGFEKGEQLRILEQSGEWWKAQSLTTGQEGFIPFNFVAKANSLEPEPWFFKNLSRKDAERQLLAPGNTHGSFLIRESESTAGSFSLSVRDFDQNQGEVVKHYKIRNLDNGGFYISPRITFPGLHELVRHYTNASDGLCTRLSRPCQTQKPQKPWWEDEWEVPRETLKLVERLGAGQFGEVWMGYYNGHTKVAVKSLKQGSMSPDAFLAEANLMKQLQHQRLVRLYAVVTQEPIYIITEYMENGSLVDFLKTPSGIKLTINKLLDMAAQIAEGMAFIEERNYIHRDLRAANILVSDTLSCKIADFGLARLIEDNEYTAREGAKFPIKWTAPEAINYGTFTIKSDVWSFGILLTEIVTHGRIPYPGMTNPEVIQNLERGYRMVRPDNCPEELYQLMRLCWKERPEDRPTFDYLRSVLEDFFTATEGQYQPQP
- ASSAY SETUP: at 0.1 µM
MEASURED ENDPOINT: inhibition (%)
The figure you give is taken to be in %; do not add the unit.

Before answering, review these 5 worked examples.
CCOc1ccc2c(-c3ccnc(Nc4cccc(C(F)(F)F)c4)n3)cnn2n1
2.98
COc1cc(N2CCN(C(C)C)CC2)ccc1Nc1nc(Nc2ccc(F)cc2C(N)=O)c2cc[nH]c2n1
2.34
COc1ccc2[nH]c3c4[nH]c5ccc(OC)cc5c4c4c(c3c2c1)C(=O)NC4=O
4.72
CNC(=O)c1cc(-c2ccc(F)cc2)cc(-c2ccc(S(=O)(=O)N3CCCC3)cc2)c1N
2.58
CC(C)COC(=O)c1ccc2c(c1)/C(=C/Nc1ccc(S(N)(=O)=O)cc1)C(=O)N2
0.55

Given NS(=O)(=O)c1ccc(N/N=C2\C(=O)Nc3ccc4ncccc4c32)cc1 , state its recorded inhibition. 5.5

Thanks! And [O-][S+]1CCN(Cc2ccc(-c3ccc4ncnc(Nc5ccc(OCc6cccc(F)c6)c(Cl)c5)c4c3)o2)CC1 ? 2.85

Thanks! And Cc1cccc2c1NC(=O)/C2=N\Nc1ccc(S(N)(=O)=O)cc1 ? 1.96

Thanks! And Fc1cccc(COc2ccc(Nc3ncnc4sc(-c5ccco5)cc34)cc2Cl)c1 ? 3.21

Thanks! And Cc1ccc(O)cc1Nc1ccnc2cc(-c3ccccn3)ccc12 ? 33.6

Thanks! And CC(=O)NCc1cccc(C#Cc2cncnc2Nc2ccc(OCc3cccc(F)c3)c(Cl)c2)c1 ? 0.34

====

- STUDY SYSTEM: Serine/threonine-protein kinase D2 (Homo sapiens) (UniProt Q9BZL6);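 also: mean value of PRKD2 inhibition, from the GSK PKIS screening panel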
- Sequence (Q9BZL6 whole entry): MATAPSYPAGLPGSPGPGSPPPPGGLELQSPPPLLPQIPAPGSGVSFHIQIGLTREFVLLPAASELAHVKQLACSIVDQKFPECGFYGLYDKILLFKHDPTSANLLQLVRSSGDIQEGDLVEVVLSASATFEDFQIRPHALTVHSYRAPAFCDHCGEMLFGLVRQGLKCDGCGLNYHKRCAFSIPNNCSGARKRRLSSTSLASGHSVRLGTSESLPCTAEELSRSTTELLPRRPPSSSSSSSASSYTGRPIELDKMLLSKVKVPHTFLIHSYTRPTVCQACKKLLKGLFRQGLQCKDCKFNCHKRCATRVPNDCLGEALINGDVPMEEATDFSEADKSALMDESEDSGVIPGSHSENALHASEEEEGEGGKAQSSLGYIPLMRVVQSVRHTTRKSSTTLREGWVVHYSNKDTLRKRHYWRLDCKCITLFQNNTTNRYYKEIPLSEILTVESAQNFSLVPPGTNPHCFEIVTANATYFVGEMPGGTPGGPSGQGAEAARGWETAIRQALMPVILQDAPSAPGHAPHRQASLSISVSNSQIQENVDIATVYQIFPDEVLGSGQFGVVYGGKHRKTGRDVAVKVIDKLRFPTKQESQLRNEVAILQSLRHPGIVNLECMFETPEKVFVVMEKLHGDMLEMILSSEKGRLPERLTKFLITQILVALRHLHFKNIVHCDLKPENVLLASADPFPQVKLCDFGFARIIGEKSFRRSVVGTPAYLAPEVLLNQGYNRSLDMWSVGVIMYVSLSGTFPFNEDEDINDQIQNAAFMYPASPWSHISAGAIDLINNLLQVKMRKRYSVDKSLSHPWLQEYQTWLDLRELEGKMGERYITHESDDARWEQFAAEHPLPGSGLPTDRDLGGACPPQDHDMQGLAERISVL
- ASSAY SETUP: at 1 µM
MEASURED ENDPOINT: inhibition
Answer format: value, then unit.

Before answering, review these 4 worked examples.
CS(=O)(=O)CCNCc1coc(-c2ccc3ncnc(Nc4ccc(OCc5ccccc5)cc4)c3c2)c1
2.1%
CC(C)(CO)CNC(=O)c1ccc2c(c1)/C(=N/Nc1ccc(S(N)(=O)=O)cc1)C(=O)N2
11.8%
COc1ccc(CNC(=O)c2ccc(-c3cc(-c4nnc(C)o4)ccc3C)cc2)cc1
1.08%
Cc1cccc(Nc2ncc(-c3ccccc3)o2)c1
3.61%

Given NC(=O)c1sc(-n2cnc3ccc(C(F)(F)F)cc32)cc1OCc1ccccc1Br , state its recorded inhibition. 4.08%

Thanks! And CS(=O)(=O)CCNCc1ccc(-c2ccc3ncnc(Nc4ccc(OCc5ccccc5)c(C(F)(F)F)c4)c3c2)o1 ? 2.47%

====

- STUDY SYSTEM: Receptor tyrosine-protein kinase erbB-2 (Homo sapiens) (UniProt P04626)
- Sequence (P04626 whole entry): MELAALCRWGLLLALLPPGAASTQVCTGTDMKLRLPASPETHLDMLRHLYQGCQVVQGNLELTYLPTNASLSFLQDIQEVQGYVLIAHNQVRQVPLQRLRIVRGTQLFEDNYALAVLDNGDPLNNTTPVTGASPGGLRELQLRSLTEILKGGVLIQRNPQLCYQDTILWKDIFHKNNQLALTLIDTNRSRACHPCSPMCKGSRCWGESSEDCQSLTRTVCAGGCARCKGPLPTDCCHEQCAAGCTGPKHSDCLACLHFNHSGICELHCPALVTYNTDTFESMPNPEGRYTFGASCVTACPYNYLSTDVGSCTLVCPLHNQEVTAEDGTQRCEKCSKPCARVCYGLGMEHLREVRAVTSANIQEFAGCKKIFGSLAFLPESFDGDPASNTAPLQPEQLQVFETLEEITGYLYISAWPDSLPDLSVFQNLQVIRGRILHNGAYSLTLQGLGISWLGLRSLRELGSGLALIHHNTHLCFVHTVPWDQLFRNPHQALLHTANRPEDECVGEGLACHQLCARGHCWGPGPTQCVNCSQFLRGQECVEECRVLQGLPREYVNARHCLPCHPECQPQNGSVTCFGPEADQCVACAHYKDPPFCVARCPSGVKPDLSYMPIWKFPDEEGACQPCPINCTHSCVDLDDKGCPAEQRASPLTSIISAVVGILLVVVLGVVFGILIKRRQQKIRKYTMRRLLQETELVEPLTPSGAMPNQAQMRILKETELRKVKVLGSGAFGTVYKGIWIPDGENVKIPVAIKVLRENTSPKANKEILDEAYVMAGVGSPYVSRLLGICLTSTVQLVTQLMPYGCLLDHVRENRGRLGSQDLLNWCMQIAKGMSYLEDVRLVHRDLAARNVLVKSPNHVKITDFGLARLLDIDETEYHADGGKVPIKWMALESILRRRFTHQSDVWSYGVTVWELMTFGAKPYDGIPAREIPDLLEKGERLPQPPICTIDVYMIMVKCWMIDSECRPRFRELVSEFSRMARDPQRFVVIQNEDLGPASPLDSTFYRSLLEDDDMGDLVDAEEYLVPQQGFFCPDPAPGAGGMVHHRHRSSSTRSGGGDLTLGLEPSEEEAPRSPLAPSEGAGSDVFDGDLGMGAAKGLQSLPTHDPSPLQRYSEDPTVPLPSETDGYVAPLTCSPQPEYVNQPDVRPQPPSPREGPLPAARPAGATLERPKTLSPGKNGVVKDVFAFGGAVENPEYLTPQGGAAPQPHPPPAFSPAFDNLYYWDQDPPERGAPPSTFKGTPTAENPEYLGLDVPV
- ASSAY SETUP: at 1 µM
- Description: GSK_PKIS: ERBB2 mean inhibition at 1 uM [Nanosyn]
compounds and their reported inhibition
The figure you give is taken to be in %; do not add the unit.

Fc1ccc(-c2nn3ncccc3c2-c2ccnc(Nc3ccc4c(c3)OCCO4)n2)cc1
41.4
Cc1ccc2c(-c3ccnc(Nc4ccccc4)n3)c(-c3ccc(F)cc3)nn2n1
32.3

Lookup: inhibition / Receptor tyrosine-protein kinase erbB-2 (Homo sapiens) (UniProt P04626) / NS(=O)(=O)c1ccc(N/N=C2\C(=O)Nc3ccc4ncccc4c32)cc1 -2.88

Thanks! And c1cc(-c2cnn3nc(N4CCOCC4)ccc23)nc(NC2CC2)n1 ? 1.94

Thanks! And CCN(CC)S(=O)(=O)c1ccc(OC)c(Nc2ncc(-c3ccccc3)o2)c1 ? 2.81

Thanks! And [O-][S+]1CCN(Cc2ccc(-c3ccc4ncnc(Nc5ccc(OCc6cccc(F)c6)c(Cl)c5)c4c3)o2)CC1 ? 79.9

Thanks! And N#Cc1c(NC(=O)c2ccc(F)cc2)sc2c1CCCC2 ? -0.51

Thanks! And COc1cc(N2CCN(C(C)C)CC2)ccc1Nc1nc(Nc2ccc(F)cc2C(N)=O)c2cc[nH]c2n1 ? 3.8

Thanks! And CC(C)(CO)CNC(=O)c1ccc2c(c1)/C(=N/Nc1ccc(S(N)(=O)=O)cc1)C(=O)N2 ? 3.86

Thanks! And Nc1nc(-c2ccc(F)cc2)c(-c2ccc3ncccc3n2)s1 ? 6.61
